- condition context: in ethyl acetate, 283.15 K
metric name: solubility (mole fraction)
Give only the figure.

Task item: // lookup solubility (mole fraction) for C[C@@H](O)[C@H]1C(=O)N2C(C(=O)[O-])=C(SC3Cn4cnc[n+]4C3)[C@H](C)[C@H]12 (stereo partly specified)
Reply: 5.21e-05

----------
- condition context: in acetonitrile, 303.15 K
metric name: solubility (mole fraction)
Give only the figure.

Task item: // lookup solubility (mole fraction) for C[C@@H](O)[C@H]1C(=O)N2C(C(=O)[O-])=C(SC3Cn4cnc[n+]4C3)[C@H](C)[C@H]12 (stereo partly specified)
Reply: 5.82e-05

----------
- condition context: in methanol, 298.15 K
metric name: solubility (mole fraction)
Give only the figure.

Task item: // lookup solubility (mole fraction) for C[C@@H](O)[C@H]1C(=O)N2C(C(=O)[O-])=C(SC3Cn4cnc[n+]4C3)[C@H](C)[C@H]12 (stereo partly specified)
Reply: 3.07e-05

----------
- condition context: in isopropanol, 303.15 K
metric name: solubility (mole fraction)

Task item: // lookup solubility (mole fraction) for C[C@@H](O)[C@H]1C(=O)N2C(C(=O)[O-])=C(SC3Cn4cnc[n+]4C3)[C@H](C)[C@H]12 (stereo partly specified)
Reply: 1.41e-05

----------
- condition context: in n-propanol, 303.15 K
metric name: solubility (mole fraction)
Give only the figure.

Task item: // lookup solubility (mole fraction) for C[C@@H](O)[C@H]1C(=O)N2C(C(=O)[O-])=C(SC3Cn4cnc[n+]4C3)[C@H](C)[C@H]12 (stereo partly specified)
Reply: 2.32e-05

----------
- condition context: in methanol, 288.15 K
metric name: solubility (mole fraction)
Give only the figure.

Task item: // lookup solubility (mole fraction) for C[C@@H](O)[C@H]1C(=O)N2C(C(=O)[O-])=C(SC3Cn4cnc[n+]4C3)[C@H](C)[C@H]12 (stereo partly specified)
Reply: 2.19e-05

----------
- condition context: in DMSO, 308.15 K
metric name: solubility (mole fraction)
Give only the figure.

Task item: // lookup solubility (mole fraction) for C[C@@H](O)[C@H]1C(=O)N2C(C(=O)[O-])=C(SC3Cn4cnc[n+]4C3)[C@H](C)[C@H]12 (stereo partly specified)
Reply: 0.000104

----------
- condition context: in acetone, 293.15 K
metric name: solubility (mole fraction)
Give only the figure.

Task item: // lookup solubility (mole fraction) for C[C@@H](O)[C@H]1C(=O)N2C(C(=O)[O-])=C(SC3Cn4cnc[n+]4C3)[C@H](C)[C@H]12 (stereo partly specified)
Reply: 3.4e-06

----------
- condition context: in isopropanol, 308.15 K
metric name: solubility (mole fraction)

Task item: // lookup solubility (mole fraction) for C[C@@H](O)[C@H]1C(=O)N2C(C(=O)[O-])=C(SC3Cn4cnc[n+]4C3)[C@H](C)[C@H]12 (stereo partly specified)
Reply: 1.69e-05

----------
- condition context: in ethanol, 308.15 K
metric name: solubility (mole fraction)
Give only the figure.

Task item: // lookup solubility (mole fraction) for C[C@@H](O)[C@H]1C(=O)N2C(C(=O)[O-])=C(SC3Cn4cnc[n+]4C3)[C@H](C)[C@H]12 (stereo partly specified)
Reply: 3.41e-05

----------
- condition context: in DMF, 283.15 K
metric name: solubility (mole fraction)

Task item: // lookup solubility (mole fraction) for C[C@@H](O)[C@H]1C(=O)N2C(C(=O)[O-])=C(SC3Cn4cnc[n+]4C3)[C@H](C)[C@H]12 (stereo partly specified)
Reply: 5.8e-05

----------
- condition context: in acetonitrile, 298.15 K
metric name: solubility (mole fraction)
Give only the figure.

Task item: // lookup solubility (mole fraction) for C[C@@H](O)[C@H]1C(=O)N2C(C(=O)[O-])=C(SC3Cn4cnc[n+]4C3)[C@H](C)[C@H]12 (stereo partly specified)
Reply: 5.17e-05

----------
- condition context: in methanol, 283.15 K
metric name: solubility (mole fraction)

Task item: // lookup solubility (mole fraction) for C[C@@H](O)[C@H]1C(=O)N2C(C(=O)[O-])=C(SC3Cn4cnc[n+]4C3)[C@H](C)[C@H]12 (stereo partly specified)
Reply: 1.86e-05

----------
- condition context: in NMP, 303.15 K
metric name: solubility (mole fraction)
Give only the figure.

Task item: // lookup solubility (mole fraction) for C[C@@H](O)[C@H]1C(=O)N2C(C(=O)[O-])=C(SC3Cn4cnc[n+]4C3)[C@H](C)[C@H]12 (stereo partly specified)
Reply: 0.000106

----------
- condition context: in ethyl acetate, 323.15 K
metric name: solubility (mole fraction)
Give only the figure.

Task item: // lookup solubility (mole fraction) for C[C@@H](O)[C@H]1C(=O)N2C(C(=O)[O-])=C(SC3Cn4cnc[n+]4C3)[C@H](C)[C@H]12 (stereo partly specified)
Reply: 0.000123
